Taken from the supplement of paper PMC11172423.

Please go through the items and note down their growth.
- Test system: Falciformispora senegalensis CBS197.79
- experiment description: growth relative to untreated control; higher = less inhibition, active = 20 or less
- experimental context: 100 µM
Numbers only, in %.

The cases that follow already have their growth on record.
{"columns": ["compound", "endpoint value"],
 "data": [
  ["CCN1C(=O)N(CCC(C)C)C2(CCN(Cc3cc(O)cc(Cl)c3)CC2)C1=O", 92.9],
  ["NC(=O)N1CCC(CC(=O)N2CCC([C@H]3c4ncc(Br)cc4CCc4cc(Cl)cc(Br)c43)CC2)CC1", 101],
  ["CC(C)(C)NC(=O)[C@@H]1CN(Cc2cccnc2)CCN1C[C@@H](O)C[C@@H](Cc1ccccc1)C(=O)N[C@H]1c2ccccc2C[C@H]1O", 103],
  ["COc1ccc(Cl)cc1-c1nc(C(=O)NCCN2CCCCC2)c(C(C)C)s1", 77.6],
  ["CC(C)Nc1ncc2nc(Nc3cc(Cl)cc(C(F)(F)F)c3)n(C3CCNCC3)c2n1", 69.2],
  ["FC(F)(F)c1cc(Cl)cc(Nc2nc3cnc(NC4CCOCC4)nc3n2C2CCNCC2)c1", 79.8],
  ["Cc1cc(Nc2cc(N)ncn2)c(=O)n2c1C(=O)NC21CCCCC1", 107],
  ["Cc1ccccc1-c1noc(-c2ccccc2)n1", 86.5]
]}

Count: 5. Required value per item: growth.
1. CCC1=C(c2ccc(C)cc2)S(=O)(=O)N=C1N1CCC(C(=O)NCCN2CCCCC2C)CC1 (centres undefined)
2. NC(=O)c1cccc(CN2Cc3ccccc3OC3(CCN(Cc4c[nH]c5cnccc45)CC3)C2)c1
3. CC(C)NCc1cccc(-c2ccc(NC(=O)c3cccc(C#N)c3)cc2)c1
4. CN(c1ncc2nc(Nc3cc(Cl)cc(C(F)(F)F)c3)n(C3CCNCC3)c2n1)C1CC1
5. CN(C)CCNC(=O)c1csc(Nc2ccc(Cl)c(Cl)c2)n1

88.6
96.6
27.9
12.3
83.6

Batch request: growth for each of the following compounds.
1. FC(F)(F)c1ccnc(Nc2cn3cc(-c4ccc(N5CCOCC5)nc4)ccc3n2)n1
2. Cc1c2c(n3c(nc4ccccc43)c1C#N)N(CCN(C)C)CC2
3. CCOc1ccc(C=C2NCCc3cc(OCC)c(OCC)cc32)cc1OCC
4. COc1ccc(-c2ccc3c(-c4ccc(F)cc4)cnc(N)c3c2)cn1
5. CC[C@H](Nc1ncnc2[nH]cnc12)c1nc2cccc(F)c2c(=O)n1-c1ccccc1
6. Cc1cc(C)c(Nc2ccnc(Nc3ccc(C#N)cc3)n2)c(C)c1
7. CC(C)(C)c1nc(-c2cccc(NS(=O)(=O)c3c(F)cccc3F)c2F)c(-c2ccnc(N)n2)s1

1: 92.1; 2: 88.2; 3: 106; 4: 75.2; 5: 98.4; 6: 99.4; 7: 104

Parameters: items (list). Returns: growth for each item.
1. CC(C)(C)Nc1ncc2nc(Nc3cccc(C(F)(F)F)c3)n(CC3CCNCC3)c2n1
2. CC[C@H](C)[C@@H]1NC(=O)c2csc(n2)[C@H]([C@@H](C)CC)NC(=O)c2csc(n2)CNC(=O)c2nc1oc2C
3. O=C(O)c1ccc2c(c1)nc(Nc1cccc(Cl)c1)c1ccncc12

1: 97.2; 2: 100; 3: 97.3

Items follow; give growth for each.
1. COc1ccc2nc3cc(Cl)ccc3c(Nc3cc(CN4CCCC4)c(O)c(CN4CCCC4)c3)c2n1
2. COc1ccc(-c2cc3ncnc(N4CCN(CCN5CCCC5)CC4)c3s2)cc1
3. Cc1cc2ncc(C(=O)NCC(C)(C)NCC(=O)N3CCC[C@H]3C#N)cn2n1
4. COc1ccc(CCN(C)CCCC(C#N)(c2ccc(OC)c(OC)c2)C(C)C)cc1OC (centres undefined)
5. CCN(CC)CCOc1ccc(C(O)(Cc2ccc(Cl)cc2)c2ccc(C)cc2)cc1 (centres undefined)
6. CN(C)CCCN1C(=O)c2[nH]nc(-c3ccc(Cl)cc3O)c2C1c1ccc(Cl)cc1 (centres undefined)

1. 15
2. 14.9
3. 102
4. 98.5
5. 8.2
6. 25.4

Could you tell me growth for each of these compounds? They are listed below.
1. CNC(=O)c1cc(Oc2ccc(NC(=O)Nc3ccc(Cl)c(C(F)(F)F)c3)c(F)c2)ccn1
2. CCCCOC(=O)c1c(C)cnc2ccccc12
3. CCOc1ccc(Cc2nccc3cc(OCC)c(OCC)cc23)cc1OCC
4. CCCCN(CCCC)CC(O)c1cc(Cl)cc2c1-c1ccc(Cl)cc1/C2=C/c1ccc(Cl)cc1 (centres undefined)
5. CC[C@H](C)[C@H]1O[C@]2(CC[C@@H]1C)C[C@@H]1C[C@@H](C/C=C(\C)[C@@H](O[C@H]3C[C@H](OC)[C@@H](O[C@H]4C[C@H](OC)[C@@H](O)[C@H](C)O4)[C@H](C)O3)[C@@H](C)/C=C/C=C3\CO[C@@H]4[C@H](O)C(C)=C[C@@H](C(=O)O1)[C@]34O)O2
6. OCCN1CCc2nc(NCc3ccc(F)cc3F)nc(NC34CC(C3)C4)c2CC1
7. COc1ccc(-c2nc3c(NCc4ccccc4)nccc3[nH]2)c(OC)c1

1: 101; 2: 98.7; 3: 105; 4: 96.3; 5: 106; 6: 19.8; 7: 26.6

I have 3 compounds here; please give me growth for each one.
1. O=C(Nc1cnc2ccccc2c1)c1ccccc1C(=O)c1ccc(F)cc1
2. CCOc1ccc(-c2nc(NC(=O)Cc3cccc(OC)c3)sc2C)cc1
3. CC(=O)Oc1ccccc1C(=O)Nc1ncc([N+](=O)[O-])s1

[95.5, 80.5, 104]
